Target: human KLK1 (human, UniProt P06870 25-262, limits assumed)
Sequence (P06870 25-262 limits assumed): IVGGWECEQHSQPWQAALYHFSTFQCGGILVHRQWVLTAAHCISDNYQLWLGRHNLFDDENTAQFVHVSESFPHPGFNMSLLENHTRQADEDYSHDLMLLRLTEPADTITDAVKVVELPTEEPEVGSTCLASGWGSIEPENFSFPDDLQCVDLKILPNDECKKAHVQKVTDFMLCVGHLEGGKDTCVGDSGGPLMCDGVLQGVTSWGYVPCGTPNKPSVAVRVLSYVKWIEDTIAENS
Experiment: column 7: KLK1 activity assay, 3 nM KLK1
Listing: IC50 of selected binders
Assay readout: IC50

binder="9F2 (antibody, V domains shown) VH: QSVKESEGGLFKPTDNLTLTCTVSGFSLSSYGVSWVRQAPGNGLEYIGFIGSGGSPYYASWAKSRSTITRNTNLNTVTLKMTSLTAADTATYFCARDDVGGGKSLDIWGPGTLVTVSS VL: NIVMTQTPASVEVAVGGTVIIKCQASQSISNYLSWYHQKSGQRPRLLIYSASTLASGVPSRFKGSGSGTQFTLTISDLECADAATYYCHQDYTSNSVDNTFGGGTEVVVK" assay_readout=IC50 experimental_result="> 100 nM"
binder="10H3 (antibody, V domains shown, also called KLK5.10H3 (complex sample)) VH: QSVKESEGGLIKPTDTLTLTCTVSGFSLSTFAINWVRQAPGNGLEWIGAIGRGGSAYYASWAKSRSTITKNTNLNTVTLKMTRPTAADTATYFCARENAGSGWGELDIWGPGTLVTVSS VL: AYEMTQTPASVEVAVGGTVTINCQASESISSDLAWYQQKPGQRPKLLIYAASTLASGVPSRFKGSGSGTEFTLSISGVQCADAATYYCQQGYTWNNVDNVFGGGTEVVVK" assay_readout=IC50 experimental_result="> 100 nM"

Cited source for all entries: patent US20200040103A1
